Recorded values, source ChEMBL document CHEMBL5653612.

assay.system: Histone-lysine N-methyltransferase, H3 lysine-79 specific (Homo sapiens)
Sequence (Q8TEK3 whole entry, the tested form may be a part): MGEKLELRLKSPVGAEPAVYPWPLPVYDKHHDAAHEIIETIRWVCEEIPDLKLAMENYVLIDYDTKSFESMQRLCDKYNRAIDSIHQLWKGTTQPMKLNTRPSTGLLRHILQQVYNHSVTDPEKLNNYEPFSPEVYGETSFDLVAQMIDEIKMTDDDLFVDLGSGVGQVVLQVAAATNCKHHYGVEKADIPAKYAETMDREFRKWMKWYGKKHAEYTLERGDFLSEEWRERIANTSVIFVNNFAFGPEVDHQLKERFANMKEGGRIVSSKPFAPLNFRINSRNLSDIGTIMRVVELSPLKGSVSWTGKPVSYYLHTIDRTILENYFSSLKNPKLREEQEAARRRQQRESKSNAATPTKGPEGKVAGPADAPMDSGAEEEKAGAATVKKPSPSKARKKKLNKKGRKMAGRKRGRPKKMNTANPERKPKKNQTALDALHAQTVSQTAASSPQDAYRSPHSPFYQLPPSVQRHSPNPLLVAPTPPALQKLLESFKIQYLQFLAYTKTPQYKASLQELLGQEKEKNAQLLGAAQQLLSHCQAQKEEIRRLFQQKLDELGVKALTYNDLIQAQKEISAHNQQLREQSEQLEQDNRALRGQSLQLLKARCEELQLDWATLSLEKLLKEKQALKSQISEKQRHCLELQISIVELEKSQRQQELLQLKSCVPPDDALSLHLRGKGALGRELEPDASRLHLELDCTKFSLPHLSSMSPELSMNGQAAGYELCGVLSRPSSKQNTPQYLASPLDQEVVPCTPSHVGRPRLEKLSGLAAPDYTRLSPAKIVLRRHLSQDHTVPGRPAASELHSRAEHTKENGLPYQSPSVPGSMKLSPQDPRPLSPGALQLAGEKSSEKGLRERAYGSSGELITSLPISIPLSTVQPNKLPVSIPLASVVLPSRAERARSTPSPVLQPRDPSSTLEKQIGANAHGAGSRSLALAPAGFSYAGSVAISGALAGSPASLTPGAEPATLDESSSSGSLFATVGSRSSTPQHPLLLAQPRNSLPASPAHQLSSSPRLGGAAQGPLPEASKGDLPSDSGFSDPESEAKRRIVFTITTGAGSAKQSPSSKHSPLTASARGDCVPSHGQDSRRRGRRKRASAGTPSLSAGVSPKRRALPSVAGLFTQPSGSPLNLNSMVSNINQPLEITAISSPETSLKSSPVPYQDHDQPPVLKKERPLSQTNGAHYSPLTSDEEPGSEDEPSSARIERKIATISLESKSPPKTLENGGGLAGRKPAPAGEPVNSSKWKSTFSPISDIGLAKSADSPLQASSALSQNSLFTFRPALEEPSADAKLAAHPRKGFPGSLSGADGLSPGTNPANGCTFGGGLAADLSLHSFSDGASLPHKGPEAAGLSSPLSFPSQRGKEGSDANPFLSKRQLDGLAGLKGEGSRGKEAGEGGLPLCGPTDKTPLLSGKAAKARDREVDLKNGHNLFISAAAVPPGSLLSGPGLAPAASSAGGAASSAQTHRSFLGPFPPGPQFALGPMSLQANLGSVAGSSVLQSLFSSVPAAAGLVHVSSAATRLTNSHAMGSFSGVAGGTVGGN
experimental.details: Binding affinity to recombinant N-terminal DOT1L (1 to 420 residues) (unknown origin) expressed in Escherichia coli (DE3) assessed as dissociation constant by SPR analysis
Each item that follows carries a reported pKd.
// pKd here means minus log10 of the molar concentration (mol/L)

* CC(C)N(CCCNC(=O)Nc1ccc(C(C)(C)C)cc1)C[C@H]1O[C@@H](n2cc(Br)c3c(N)ncnc32)[C@H](O)[C@@H]1O | 10.25
* Cc1ccc(NC(=O)NCCCN(C[C@H]2O[C@@H](n3cnc4c(N)ncnc43)[C@H](O)[C@@H]2O)C(C)C)cc1 | 7.57

Moving on to the next molecule.
-- ask Consider the molecule CC(C)(C)c1ccc(NC(=O)NCCCNC[C@H]2O[C@@H](n3cc(Br)c4c(N)ncnc43)[C@H](O)[C@@H]2O)cc1 and give its measured pKd.
-- reply 8.47
